- target-desc: Human immunodeficiency virus type 1 integrase (Human immunodeficiency virus 1, UniProt Q7ZJM1)
- Sequence (Q7ZJM1 whole entry): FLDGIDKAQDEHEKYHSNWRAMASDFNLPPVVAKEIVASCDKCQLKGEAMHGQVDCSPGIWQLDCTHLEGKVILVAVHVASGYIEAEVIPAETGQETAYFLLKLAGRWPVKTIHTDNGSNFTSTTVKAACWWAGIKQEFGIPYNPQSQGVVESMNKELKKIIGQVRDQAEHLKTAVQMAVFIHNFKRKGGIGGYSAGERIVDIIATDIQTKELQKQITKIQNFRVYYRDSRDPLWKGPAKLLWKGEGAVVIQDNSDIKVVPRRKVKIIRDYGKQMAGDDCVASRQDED
- procedure-summary: Inhibition of HIV1 integrase 3'-processing activity in presence of MgCl2
Recorded IC50 values for a group of compounds are listed next.
Give just the numeric value; µM need not be written.

Examples from the recorded data:
- CCOC(=O)C(=O)/C=C(\O)c1ccc2ncc(/C(O)=C/C(=O)C(=O)OCC)c(O)c2c1: 28
- CCOC(=O)C(=O)/C=C(\O)c1ccc2c(c1)c(=O)c(/C(O)=C/C(=O)C(=O)OCC)cn2Cc1ccc(F)cc1: 21

Exercise: Which IC50 is listed for O=C(O)C(=O)/C=C(\O)c1ccc2ncc(/C(O)=C/C(=O)C(=O)O)c(O)c2c1 ?
Key: 22

Value source: ChEMBL document CHEMBL1138986
